# System: Vero E6 infected with SARS-CoV-2
# Assay: inhibition of SARS-CoV-2 cytopathic effect; higher = more antiviral protection, active = above 15
# Assay Setup: 10000 nM; 48 h
Measured Property: inhibition of SARS-CoV-2 cytopathic effect (%)
Field format: number, assumed %, no unit text.

{"columns": ["Compound", "Recorded Measurement"],
 "data": [
  ["N=C(N)NS(=O)(=O)c1ccc(N)cc1", 1.22],
  ["COc1ccc(-c2c(C)c(C(=O)NN3CCCCC3)nn2-c2ccc(Cl)cc2Cl)cc1", -1.1],
  ["COc1cc2c(cc1OCCCN1CCCC1)N=C(N)C21CCC1", 1.55],
  ["CS(=O)(=O)n1cc2c(n1)CN([C@H]1CO[C@H](c3cc(F)ccc3F)[C@@H](N)C1)C2", 0.42],
  ["O=C(C[S+]([O-])C(c1ccccc1)c1ccccc1)NO (stereo not given)", -1.53],
  ["c1ccc(-c2nn3c(c2-c2ccnc4cc(OCCN5CCOCC5)ccc24)CCC3)nc1", 0.94]
]}

Which inhibition of SARS-CoV-2 cytopathic effect is listed for O=C1CCC[C@@H]2[C@H]3C[C@@H](CN12)[C@@H]1CCCCN1C3 ?
-0.17

Which inhibition of SARS-CoV-2 cytopathic effect is listed for O=C(O)Cc1sc(-c2ccccc2)nc1-c1ccc(Cl)cc1 ?
1.91

Which inhibition of SARS-CoV-2 cytopathic effect is listed for Cc1nccc2[nH]c(=O)ccc12 ?
-3.87

Which inhibition of SARS-CoV-2 cytopathic effect is listed for COC1=C(OC)C(=O)C(CCCCCCCCCCO)=C(C)C1=O ?
0.26

---

Overview of reported morphology score across a group of compounds:
# Tested on: Vero E6 infected with SARS-CoV-2
# Assay: morphology score (similarity to uninfected cells); higher = more like uninfected cells
# Assay Setup: 24 h
Kindly provide the number alone.

Which morphology score is listed for Cc1cc(C)c2c(N)c(C(=O)NCc3ccc(Cl)cc3)sc2n1 (10 µM) ?
0.0846

Which morphology score is listed for C[C@]12CC[C@H](O)C[C@H]1CC[C@@H]1[C@@H]2CC[C@]2(C)[C@@](O)(c3ccoc3)CC[C@]12O [rostafuroxine] (10 µM) ?
-0.206

Which morphology score is listed for Oc1c(I)cc(I)c(O)c1I [riodoxol] (10 µM) ?
0.0583

Which morphology score is listed for CC(C)(O)c1coc(S(=O)(=O)NC(=O)Nc2c3c(cc4c2CCC4)CCC3)c1 (10 µM) ?
0.0866

Which morphology score is listed for N=C(N)N [guanidine] (0.833333 µM) ?
-0.293

Which morphology score is listed for NCC(CS(=O)(=O)O)c1ccc(Cl)cc1 (stereo not drawn) [saclofen] (10 µM) ?
0.194

Which morphology score is listed for O=C(NCCCCN1CCN(c2cccc(Cl)c2Cl)CC1)c1ccc2c(c1)Cc1ccccc1-2 (10 µM) ?
-0.00329

Which morphology score is listed for CCCCC[C@H](O)/C=C/[C@H]1[C@H](O)CC(=O)[C@@H]1CCCCCCC(=O)O [alprostadil] (10 µM) ?
0.11

---

# System: Vero E6 infected with SARS-CoV-2
# Assay: inhibition of SARS-CoV-2 cytopathic effect; higher = more antiviral protection, active = above 15
# Assay Setup: 10000 nM; 48 h
Permitted responses: Yes for active, No for inactive

{"columns": ["Molecule", "Class Assignment"],
 "data": [
  ["C[C@]12CC/C(=N\\OCCN)C[C@@H]1C(=O)C[C@@H]1[C@@H]2CC[C@]2(C)C(=O)CC[C@@H]12 [istaroxime]", "No"],
  ["Cc1noc(C)c1-c1ccc(-c2cc(C(N)=O)c(NC(N)=O)s2)c(O[C@H]2CCNC2)c1", "No"],
  ["CC1(C)S[C@@H]2[C@H](NC(=O)Cc3ccccc3)C(=O)N2[C@H]1C(=O)O [benzylpenicillin]", "No"],
  ["CC(=O)c1c(O)cc(C)oc1=O [dehydroacetic-acid]", "No"]
]}

State the result this test recorded for O=C(Nc1cc(C(F)(F)F)cc(C(F)(F)F)c1)c1cc(Cl)ccc1O [IKK-2-inhibitor-V] .
No

State the result this test recorded for Cc1cc2c(OCC(CNC(C)(C)C)OC(=O)c3ccccc3)cccc2[nH]1 (stereo not drawn) [bopindolol] .
No

State the result this test recorded for O=c1cc(-c2ccc(O)c(O)c2)oc2cc(O)cc(O)c12 [luteolin] .
No

Reference source: the supplement of paper PMC13380429
